Recorded values, source ChEMBL document CHEMBL5136984.

Can you tell me EC for the items I'm about to list?
System: MDA-MB-231
testSummary: Cytotoxicity against human MDA-MB-231 cells assessed as concentration required for complete tumor growth inhibition incubated for 72 hrs by Celltiter Glo assay
Format: functional

*Q* Input Cn1c(=O)c(NC(=O)c2ccc(OCCCCCCCCCC[P+](c3ccccc3)(c3ccccc3)c3ccccc3)cc2)cc2cc(Br)ccc21.[Br-] , output reported EC.
*A* 0.037 µM

*Q* Input Cn1c(=O)c(NC(=O)c2ccc(O)cc2)cc2cc(Br)ccc21 , output reported EC.
*A* 10.97 µM

*Q* Input Cn1c(=O)c(NC(=O)c2ccc(OCCCC[P+](c3ccccc3)(c3ccccc3)c3ccccc3)cc2)cc2cc(Br)ccc21.[Br-] , output reported EC.
*A* 0.091 µM

*Q* Input Cn1c(=O)c(NC(=O)c2ccc(OCCCCCCC[P+](c3ccccc3)(c3ccccc3)c3ccccc3)cc2)cc2cc(Br)ccc21.[Br-] , output reported EC.
*A* 0.18 µM

*Q* Input Cn1c(=O)c(NC(=O)c2ccc(OCCCCCCCCCCCC[P+](c3ccccc3)(c3ccccc3)c3ccccc3)cc2)cc2cc(Br)ccc21.[Br-] , output reported EC.
*A* 15.2 µM

*Q* Input Cn1c(=O)c(NC(=O)c2ccc(OCCCCCCCCCC[P+](c3ccccc3)(c3ccccc3)c3ccccc3)cc2)cc2ccccc21.[Br-] , output reported EC.
*A* 0.092 µM

*Q* Input Cn1c(=O)c(NC(=O)c2ccc(OCCCCC[P+](c3ccccc3)(c3ccccc3)c3ccccc3)cc2)cc2cc(Br)ccc21.[Br-] , output reported EC.
*A* 0.093 µM

*Q* Input Cn1c(=O)c(NC(=O)c2ccc(OCCC[P+](c3ccccc3)(c3ccccc3)c3ccccc3)cc2)cc2cc(Br)ccc21.[Br-] , output reported EC.
*A* 0.16 µM

*Q* Input COc1ccc(C(=O)Nc2cc3cc(Br)ccc3n(C)c2=O)cc1 , output reported EC.
*A* 0.16 µM

* * *

System: MDA-MB-231
testSummary: Cytotoxicity against human MDA-MB-231 cells assessed as cell growth inhibition incubated for 72 hrs by Celltiter Glo assay
Type: functional, cell-based
testSettings: MDA-MB-231, time 72 hrs
Can you tell me GI50 for the items I'm about to list?
Give a bare numeral; the unit nM is implied.

*Q* Input Cn1c(=O)c(NC(=O)c2ccc(OCCCCCCCCCC[P+](c3ccccc3)(c3ccccc3)c3ccccc3)cc2)cc2ccccc21.[Br-] , output reported GI50.
*A* 26

*Q* Input COc1ccc(C(=O)Nc2cc3cc(Br)ccc3n(C)c2=O)cc1 , output reported GI50.
*A* 60

*Q* Input Cn1c(=O)c(NC(=O)c2ccc(OCCC[P+](c3ccccc3)(c3ccccc3)c3ccccc3)cc2)cc2cc(Br)ccc21.[Br-] , output reported GI50.
*A* 60

*Q* Input Cn1c(=O)c(NC(=O)c2ccc(OCCCC[P+](c3ccccc3)(c3ccccc3)c3ccccc3)cc2)cc2cc(Br)ccc21.[Br-] , output reported GI50.
*A* 76
